Just for reference, patent US9206165B2 is where these values come from.

reported.metric: melting point

Solved cases (5 shown):
> print(dat)
                                   molecule  experimental.value
1  O=C(Cn1nnnc1-c1ccc2c(c1)OCO2)NN=Cc1ccco1 [f13]       212 to 214 °C
2  Cc1ccc(C=NNC(=O)Cn2nnnc2-c2ccc3c(c2)OCO3)cc1 [f6]       203 to 205 °C
3  O=C(Cn1nnnc1-c1ccc2c(c1)OCO2)N/N=C/c1ccc([N+](=O)[O-])cc1 [f14]       204 to 206 °C
4  CCc1ccc(C=NNC(=O)Cn2nnnc2-c2ccc3c(c2)OCO3)cc1 [f11]       200 to 202 °C
5  O=C(Cn1nnnc1-c1ccc2c(c1)OCO2)NN=Cc1ccc(Cl)cc1 [f1]       206 to 208 °C

// each listed molecule needs a value for melting point
1. COc1ccc(C=NNC(=O)Cn2nnnc2-c2ccc3c(c2)OCO3)cc1OC [f8]
2. CCOc1ccccc1C=NNC(=O)Cn1nnnc1-c1ccc2c(c1)OCO2 [f7]
3. O=C(Cn1nnnc1-c1ccc2c(c1)OCO2)NN=Cc1ccccc1Cl [f2]
4. O=C(Cn1nnnc1-c1ccc2c(c1)OCO2)NN=Cc1ccccc1[N+](=O)[O-] [f10]
5. O=C(Cn1nnnc1-c1ccc2c(c1)OCO2)NN=Cc1cccc([N+](=O)[O-])c1 [f12]
6. COc1ccc(C=NNC(=O)Cn2nnnc2-c2ccc3c(c2)OCO3)cc1 [f4]
7. O=C(Cn1nnnc1-c1ccc2c(c1)OCO2)NN=Cc1ccccc1 [f5]
8. CCOc1ccc(C=NNC(=O)Cn2nnnc2-c2ccc3c(c2)OCO3)cc1 [f3]

a:
1. 200 to 202 °C
2. 196 to 198 °C
3. 198 to 200 °C
4. 210 to 212 °C
5. 208 to 210 °C
6. 198 to 200 °C
7. 204 to 206 °C
8. 208 to 210 °C
